Where do these numbers come from? They come from ChEMBL document CHEMBL4321876.

protocol: Intrinsic clearance in rat liver microsomes assessed per mg protein at 0.1 uM preincubated for 10 mins followed by NADPH addition and measured up to 60 mins by UPLC-MS/MS analysis
Assay type: ADME, Microsome
experimentalSetup: read-out: CLH
measureName: microsomal CLint at 0.1 µM
Respond with a number, then the unit of measure.

CNC(=O)Nc1ccc2c(c1)CC[C@@]21OC(=O)N(CC(=O)N2Cc3cc(F)ccc3OC[C@H]2C(F)(F)F)C1=O    47.8 µL/min/mg
Cn1cc(-c2ccc3c(c2)CC[C@@]32OC(=O)N(CC(=O)N3Cc4cc(F)ccc4OC[C@H]3C(F)(F)F)C2=O)cn1    57.8 µL/min/mg
CNC(=O)Nc1ccc2c(c1)CC[C@@]21OC(=O)N(CC(=O)N2Cc3ccccc3CC[C@H]2C2CC2)C1=O    480 µL/min/mg
CNC(=O)Nc1ccc2c(c1)CC[C@@]21OC(=O)N(CC(=O)N2Cc3ccccc3CC[C@H]2C(C)C)C1=O    411 µL/min/mg

Reported microsomal CLint at 0.1 µM, compound CNC(=O)Nc1ccc2c(c1)CC[C@]21NC(=O)N(CC(=O)N2Cc3cc(F)ccc3OC[C@H]2C(F)(F)F)C1=O : ____
3.1 µL/min/mg

Another compound: Cn1cc(-c2ccc3c(c2)CC[C@]32NC(=O)N(CC(=O)N3Cc4cc(F)ccc4OC[C@H]3C(F)(F)F)C2=O)cn1
32.7 µL/min/mg

Another compound: CNC(=O)Nc1ccc2c(c1)CC[C@]21NC(=O)N(CC(=O)N2Cc3cc(F)ccc3OC[C@H]2C2CC2)C1=O
9.2 µL/min/mg
